# experimental-system: full-length beta-Catenin (Uniprot ID P35222) (Homo sapiens (Human)) (UniProt P35222)
# Sequence (P35222 whole entry): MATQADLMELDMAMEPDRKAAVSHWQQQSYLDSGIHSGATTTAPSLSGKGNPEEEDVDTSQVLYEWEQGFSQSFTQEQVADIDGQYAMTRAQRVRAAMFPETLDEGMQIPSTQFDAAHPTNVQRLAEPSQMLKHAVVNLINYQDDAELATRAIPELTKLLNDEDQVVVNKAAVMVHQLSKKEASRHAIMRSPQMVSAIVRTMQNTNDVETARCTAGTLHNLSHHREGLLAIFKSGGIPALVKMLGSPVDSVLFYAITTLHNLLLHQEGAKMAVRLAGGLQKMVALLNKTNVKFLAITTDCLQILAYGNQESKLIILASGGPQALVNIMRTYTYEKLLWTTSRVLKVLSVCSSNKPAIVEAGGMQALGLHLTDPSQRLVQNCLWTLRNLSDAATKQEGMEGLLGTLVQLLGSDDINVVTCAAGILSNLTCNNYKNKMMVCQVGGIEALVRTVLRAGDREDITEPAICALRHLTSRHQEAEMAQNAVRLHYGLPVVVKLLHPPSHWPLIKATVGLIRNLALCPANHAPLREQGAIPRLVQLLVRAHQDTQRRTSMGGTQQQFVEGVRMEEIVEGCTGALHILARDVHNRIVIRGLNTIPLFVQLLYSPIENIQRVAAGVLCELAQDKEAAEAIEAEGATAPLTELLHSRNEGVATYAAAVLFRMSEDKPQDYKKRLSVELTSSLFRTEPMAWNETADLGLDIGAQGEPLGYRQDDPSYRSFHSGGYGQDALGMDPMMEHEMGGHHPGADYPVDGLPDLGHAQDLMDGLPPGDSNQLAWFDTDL
# experiment: fluorescence polarization competition; competitor 5FAM-TCF4(10-53) probe on full-length beta-catenin
Starred links: 1 amine or outer side, 2 acyl side, 3 side chain; linkers in the order of their positions; H or OH if unused. Positions of bridges follow the written chain, without caps; N, C: chain ends. Non-standard residues stand in square brackets, D forms with d. Primed or numbered codes have the meaning given here. No end group written: not given here. PyrS2″ = (S)-3-amino-1-((pent-4-en-1-yloxy)carbonyl)pyrrolidine-3-carboxylic acid (stapling residue), C=CCCCOC(=O)N1CC[C@@](N[*:1])(C(=O)[*:2])C1; B5(4) = 2,2-bis(4-pentenyl)glycine = 2-amino-2-(pent-4-en-1-yl)hept-6-enoic acid (stitching residue), C=CCCCC(CCCC=C)(N[*:1])C(=O)[*:2]; B5(3) = 2,2-bis(4-pentenyl)glycine (stitching residue), C=CCCCC(CCCC=C)(N[*:1])C(=O)[*:2]; Phe(3-COOH) = N[C@@H](Cc1cccc(C(=O)O)c1)C(=O)O; 2F3MeF = Cc1cccc(C[C@H](N[*:1])C(=O)[*:2])c1F; Phe(2-Me) = Cc1ccccc1C[C@H](N)C(=O)O; Bta = N[C@@H](Cc1csc2ccccc12)C(=O)O; Lys(iPr) = CC(C)NCCCC[C@H](N)C(=O)O; hTyr = N[C@@H](CCc1ccc(O)cc1)C(=O)O; αAllylPro = C=CC[C@@]1(C(=O)O)CCCN1; tBuAla = CC(C)(C)C[C@H](N)C(=O)O; 3Thi = N[C@@H](Cc1ccsc1)C(=O)O; Cha = N[C@@H](CC1CCCCC1)C(=O)O
quantity-kind: log10 of IC50 (log10 of the value in nM)
Remember, log10 of IC50, in nM.

Prompt: Reported log10 of IC50, binder Ac-[αAllylPro]D[tBuAla][B5(4)]D[hTyr]AA[Phe(3-COOH)]N[PyrS2″][3Thi][Bta]Q-NH2 (staple 1-4, 4-11; also: later eluting HPLC isomer composition) [I-2115] : ____
Completion: 1.46

Prompt: Reported log10 of IC50, binder Ac-[αAllylPro]D[tBuAla][B5(4)]D[hTyr]AA[Phe(3-COOH)]N[PyrS2″][3Thi][Bta]Q-NH2 (staple 1-4, 4-11; also: earlier eluting HPLC isomer composition) [I-2114] : ____
Completion: 1.51

Prompt: Reported log10 of IC50, binder Ac-[αAllylPro]D[tBuAla][B5(3)]D[Phe(3-COOH)]A[dA]FL[PyrS2″][2F3MeF][Bta][dA]-NH2 (staple 1-4, 4-11) [I-2101] : ____
Completion: 2.63

Prompt: Reported log10 of IC50, binder [αAllylPro]D[tBuAla][B5(4)]DDAAFF[PyrS2″][Phe(2-Me)][Bta]Q-NH2 (staple 1-4, 4-11) [I-1326] : ____
Completion: 1.08

Prompt: Reported log10 of IC50, binder Ac-[αAllylPro]N[Cha][B5(4)]DQ[Lys(iPr)]AFN[PyrS2″]F[Bta]N-NH2 (staple 1-4, 4-11) [I-2111] : ____
Completion: 2.26

Prompt: Reported log10 of IC50, binder Ac-[αAllylPro]D[tBuAla][B5(4)]DYAA[Phe(3-COOH)]L[PyrS2″][3Thi][Bta]Q-NH2 (staple 1-4, 4-11) [I-2126] : ____
Completion: 1.83

Prompt: Reported log10 of IC50, binder Ac-[αAllylPro]D[tBuAla][B5(4)]D[Phe(3-COOH)]A[dA]FL[PyrS2″][2F3MeF][Bta]A-NH2 (staple 1-4, 4-11; also: earlier-eluting HPLC isomer composition) [I-2098] : ____
Completion: 2.41

Prompt: Reported log10 of IC50, binder Ac-[αAllylPro]D[tBuAla][B5(4)]DWAA[Phe(3-COOH)]N[PyrS2″][3Thi][Bta]Q-NH2 (staple 1-4, 4-11) [I-2127] : ____
Completion: 1.56
